Experiment: recombinant UMI read abundance after kanamycin selection (control-corrected) (log10(CPM+1)); higher = more efficient recombination; extreme values may be limits of the assay; sequences stand for … in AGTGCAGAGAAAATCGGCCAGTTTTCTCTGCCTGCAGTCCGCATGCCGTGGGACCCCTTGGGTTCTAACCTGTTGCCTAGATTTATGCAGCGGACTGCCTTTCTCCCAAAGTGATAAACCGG…AGGTTGGTTTCACT; site = the 11-nt donor
Label scheme for recombinant UMI read abundance (log10): lower than 0.03 is -1, 0.03 and above is 1.

Reference set (8 entries):
{"Record sequence": "CGTACATCATGGACCGGTTTTCCCGGTAATCCGTATTTGCT (site CGAACATCTAG)", "Group": 1}
{"Record sequence": "GGCCACCCATGGACCGGTTTTCCCGGTAATCCGTATTTGTA (site GGCCACCCTTA)", "Group": 1}
{"Record sequence": "ACCCTAGCATGGACCGGTTTTCCCGGTAATCCGTATTTGTT (site AACCTAGCTAA)", "Group": 1}
{"Record sequence": "GACAAGCCATGGACCGGTTTTCCCGGTAATCCGTATTTGGT (site GACAAACCTAC)", "Group": -1}
{"Record sequence": "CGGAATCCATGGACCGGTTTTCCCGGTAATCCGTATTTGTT (site AGAAATCCTAA)", "Group": -1}
{"Record sequence": "GGCAAGACATGGACCGGTTTTCCCGGTAATCCGTATTTGCA (site AGGAAGACTTG)", "Group": -1}
{"Record sequence": "ACCGTATCATGGACCGGTTTTCCCGGTAATCCGTATTTGCA (site ACCGTATCTTG)", "Group": 1}
{"Record sequence": "TCGCTCTCATGGACCGGTTTTCCCGGTAATCCGTATTTGGC (site TCGCTCTCTGC)", "Group": -1}

Assess whether reported recombinant UMI read abundance (log10) for ATATATGCATGGACCGGTTTTCCCGGTAATCCGTATTTGCT (site ATATATGCTAG) sits at 0.03 or higher.
1

Assess whether reported recombinant UMI read abundance (log10) for GTAGTTGCATGGACCGGTTTTCCCGGTAATCCGTATTTGCG (site GTAGTAGCTCG) sits at 0.03 or higher.
1

Assess whether reported recombinant UMI read abundance (log10) for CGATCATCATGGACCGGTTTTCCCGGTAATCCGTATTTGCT (site TGATCATCTCG) sits at 0.03 or higher.
-1

Assess whether reported recombinant UMI read abundance (log10) for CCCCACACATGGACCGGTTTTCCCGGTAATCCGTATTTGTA (site CCCCACACTTT) sits at 0.03 or higher.
-1

----------
Consider the following sequences; for each one, report its recombinant barcode read abundance (log10).
Test: recombinant barcode read abundance after kanamycin selection (control-corrected) (log10(CPM+1)); higher = more efficient recombination; sequences stand for … in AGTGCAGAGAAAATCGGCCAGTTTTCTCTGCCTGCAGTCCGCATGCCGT…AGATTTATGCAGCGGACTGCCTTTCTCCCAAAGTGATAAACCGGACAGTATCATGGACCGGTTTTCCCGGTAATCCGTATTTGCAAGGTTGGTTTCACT; site = the 11-nt target
Numbers only.

{"Record sequence": "ACCGGTACTTGGGTTCTAACCTGTTGCCT (site ACCCGTACTAG)", "Readout number": 0.014}
{"Record sequence": "CATATGACTTGGGTTCTAACCTGTTGCCT (site CATATGACTAG)", "Readout number": 1.2}
{"Record sequence": "GACTGGTCTTGGGTTCTAACCTGTTGCCT (site GACTGGTCTAG)", "Readout number": 1.45}
{"Record sequence": "AGCAGAGCTTGGGTTCTAACCTGTTGCTG (site AGCAGAGCTCA)", "Readout number": 1.39}
{"Record sequence": "TGGAGCCCTTGGGTTCTAACCTGTTGCAC (site TGGAGCCCTGT)", "Readout number": 0.253}
{"Record sequence": "AGGATCCCTTGGGTTCTAACCTGTTGCAT (site AGGATCCCTAT)", "Readout number": 1.99}

Need recombinant barcode read abundance (log10) for each of these sequences.
1. ATCTTACCTTGGGTTCTAACCTGTTGCCT (site ATCTTATCTAG)
2. GGACACTCTTGGGTTCTAACCTGTTGCTA (site GGACACTCTTA)
3. TCACGTCCTTGGGTTCTAACCTGTTGCCT (site TCACGTCCTAA)
4. GCACGCTCTTGGGTTCTAACCTGTTGCCT (site GCACCCTCTAG)

1: 0.109; 2: 2.15; 3: 0.403; 4: 0.192

----------
Assay: recombinant barcode read abundance after kanamycin selection (control-corrected) (log10(CPM+1)); higher = more efficient recombination; sequences stand for … in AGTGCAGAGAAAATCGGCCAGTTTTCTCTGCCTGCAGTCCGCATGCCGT…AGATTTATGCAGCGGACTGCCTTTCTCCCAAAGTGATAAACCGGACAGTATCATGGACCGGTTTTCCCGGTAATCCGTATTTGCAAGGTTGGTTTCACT; site = the 11-nt target
Label scheme for recombinant barcode read abundance (log10): lower than 0.2 is rule not met, 0.2 and above is rule met.

Reference set (6 entries):
{"Record sequence": "ACATGTCCTTGGGTTCTAACCTGTTGCGT (site ACATGTCCTAT)", "Group": "rule met"}
{"Record sequence": "CTTGGAGCTTGGGTTCTAACCTGTTGCCT (site CTTGGAGCTAG)", "Group": "rule met"}
{"Record sequence": "GGGTCGGCTTGGGTTCTAACCTGTTGCGC (site GGGTCGGCTTC)", "Group": "rule not met"}
{"Record sequence": "CGGAAGCCTTGGGTTCTAACCTGTTGCCT (site CGGAAGGCTAG)", "Group": "rule not met"}
{"Record sequence": "ACCGGTACTTGGGTTCTAACCTGTTGCCT (site ACCTGTACTAG)", "Group": "rule not met"}
{"Record sequence": "AATGCTACTTGGGTTCTAACCTGTTGCCA (site AAAACTACTTG)", "Group": "rule not met"}

Assess whether reported recombinant barcode read abundance (log10) for AGTCCTTCTTGGGTTCTAACCTGTTGCAT (site CGTCCTTCTAG) sits at 0.2 or higher.
rule not met

Assess whether reported recombinant barcode read abundance (log10) for AGCCTGTCTTGGGTTCTAACCTGTTGCCT (site AGCCTGGCTAG) sits at 0.2 or higher.
rule not met

Assess whether reported recombinant barcode read abundance (log10) for TAACGTACTTGGGTTCTAACCTGTTGCAT (site TAACCTACTAT) sits at 0.2 or higher.
rule not met

Assess whether reported recombinant barcode read abundance (log10) for CTCCATACTTGGGTTCTAACCTGTTGCCT (site CTCCATTCTAG) sits at 0.2 or higher.
rule not met

Assess whether reported recombinant barcode read abundance (log10) for TACTAAGCTTGGGTTCTAACCTGTTGCCT (site TACTAAGCTAC) sits at 0.2 or higher.
rule not met

Assess whether reported recombinant barcode read abundance (log10) for GGCACGGCTTGGGTTCTAACCTGTTGCCT (site GGCACCGCTAG) sits at 0.2 or higher.
rule not met

Assess whether reported recombinant barcode read abundance (log10) for GGGGTAACTTGGGTTCTAACCTGTTGCCT (site GGGACAACTAG) sits at 0.2 or higher.
rule not met

Assess whether reported recombinant barcode read abundance (log10) for GAGCTACCTTGGGTTCTAACCTGTTGCCC (site GAGCTACCTAG) sits at 0.2 or higher.
rule met

Assess whether reported recombinant barcode read abundance (log10) for TCTACCTCTTGGGTTCTAACCTGTTGCCT (site TCTACATCTAG) sits at 0.2 or higher.
rule not met

----------
Assay: recombinant barcode read abundance after kanamycin selection (control-corrected) (log10(CPM+1)); higher = more efficient recombination; sequences stand for … in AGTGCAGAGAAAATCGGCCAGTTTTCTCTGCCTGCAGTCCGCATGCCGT…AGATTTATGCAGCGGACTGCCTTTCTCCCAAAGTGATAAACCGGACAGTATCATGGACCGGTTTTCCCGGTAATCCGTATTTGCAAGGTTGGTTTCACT; site = the 11-nt target
Reported metric: recombinant barcode read abundance (log10)
Numbers only.

Recorded recombinant barcode read abundance (log10), per entry:
{"Record sequence": "CTACCAACTTGGGTTCTAACCTGTTGCCT (site CTACCACCTAG)", "Readout number": 0.0179}
{"Record sequence": "CGACGTACTTGGGTTCTAACCTGTTGCCT (site CGACGTACTAG)", "Readout number": 0.151}
{"Record sequence": "GTTTAATCTTGGGTTCTAACCTGTTGCCT (site GTTTAATCTAG)", "Readout number": 0.216}

Need recombinant barcode read abundance (log10) for each of these sequences.
1. AGTGCGGCTTGGGTTCTAACCTGTTGCCT (site GGTGCGGCTAG)
2. GTGGTACCTTGGGTTCTAACCTGTTGCCT (site GTGGTATCTAG)
3. CGTAATGCTTGGGTTCTAACCTGTTGCCT (site CGGAATGCTAG)
4. GTGTACCCTTGGGTTCTAACCTGTTGCGT (site GTGTACCCTTC)
5. TCTGGGGCTTGGGTTCTAACCTGTTGCCT (site ACTGGGGCTTG)
6. AAGACCTCTTGGGTTCTAACCTGTTGCTT (site AAGTCCTCTAA)
7. TCCAAGGCTTGGGTTCTAACCTGTTGCCT (site TCCAAGGCTAG)

[0.0363, 0.391, 0.0453, 0.185, 0.0588, 0.134, 0.107]
